Biological target: T1, human EphB1 (Homo sapiens, UniProt P54762)
T1 construct: a protein of the extracellular region of each human Eph receptor fused with the SEAP protein and the His tag; made in house; host or cells: Expi293F cells (culture supernatant)
T1 sequence (P54762 18-540 limits assumed): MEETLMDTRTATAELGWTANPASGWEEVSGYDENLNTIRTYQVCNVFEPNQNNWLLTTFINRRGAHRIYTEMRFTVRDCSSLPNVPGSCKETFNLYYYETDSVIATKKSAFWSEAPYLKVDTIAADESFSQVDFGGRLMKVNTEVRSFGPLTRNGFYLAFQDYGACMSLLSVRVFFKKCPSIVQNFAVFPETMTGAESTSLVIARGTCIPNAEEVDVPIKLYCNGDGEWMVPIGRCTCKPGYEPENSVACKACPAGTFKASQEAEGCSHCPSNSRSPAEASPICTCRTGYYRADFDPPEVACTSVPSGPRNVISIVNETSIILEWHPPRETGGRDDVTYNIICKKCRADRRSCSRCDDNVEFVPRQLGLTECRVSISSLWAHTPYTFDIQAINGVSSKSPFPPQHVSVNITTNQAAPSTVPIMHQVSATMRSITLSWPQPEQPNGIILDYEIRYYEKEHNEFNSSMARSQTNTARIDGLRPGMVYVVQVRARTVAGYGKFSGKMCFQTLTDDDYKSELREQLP
Assay: Selectivity ELISA of humanized antibodies for human Eph receptor
Format: binding
Settings: coated protein 1 nM
Description: According to the method described in Example 7, a DNA sequence encoding the signal sequence and the extracellular region of each human Eph receptor (EphA1, EphA2, EphA3, EphA4, EphA5, EphA6, EphA7, EphA8, EphA10, EphB1, EphB2, EphB3, EphB4, and EphB6) was amplified by RT-PCR using tissue-derived total RNA and cloned into a pENTR1A vector (Invitrogen/Life Technologies) having a DNA sequence encoding SEAP protein and histidine tag. […]
The entries below come with measured hEphB1-SEAP-: absorbance at 450 nm, percentage with respect to hEphA4-SEAP-His as 100% values attached.
// note: answer is a bare numeric in %

molecule | obsValue
71 (antibody, V domains shown, synthetic humanized antibody heavy chain variable region sequence; synthetic humanized antibody light chain variable region sequence) VH: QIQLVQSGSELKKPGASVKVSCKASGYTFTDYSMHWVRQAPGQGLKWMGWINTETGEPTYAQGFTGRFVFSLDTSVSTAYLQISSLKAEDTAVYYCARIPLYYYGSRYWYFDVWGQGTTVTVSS VL: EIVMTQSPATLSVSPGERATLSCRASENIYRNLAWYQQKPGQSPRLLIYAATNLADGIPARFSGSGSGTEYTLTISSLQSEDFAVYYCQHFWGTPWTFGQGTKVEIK | 5.4
78 (antibody, V domains shown, synthetic humanized antibody heavy chain variable region sequence; synthetic humanized antibody light chain variable region sequence) VH: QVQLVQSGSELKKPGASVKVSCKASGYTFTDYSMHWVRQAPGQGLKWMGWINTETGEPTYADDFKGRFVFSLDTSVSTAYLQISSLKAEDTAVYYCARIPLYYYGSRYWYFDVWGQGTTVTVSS VL: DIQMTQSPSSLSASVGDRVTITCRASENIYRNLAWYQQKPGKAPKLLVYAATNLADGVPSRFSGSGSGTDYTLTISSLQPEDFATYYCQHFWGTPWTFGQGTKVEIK | 5.0

From here, focus on the item given below.
(Q) Need hEphB1-SEAP-: absorbance at 450 nm, percentage with respect to hEphA4-SEAP-His as 100% of 156 (antibody, V domains shown, synthetic humanized antibody heavy chain variable region sequence; synthetic humanized antibody light chain variable region sequence) VH: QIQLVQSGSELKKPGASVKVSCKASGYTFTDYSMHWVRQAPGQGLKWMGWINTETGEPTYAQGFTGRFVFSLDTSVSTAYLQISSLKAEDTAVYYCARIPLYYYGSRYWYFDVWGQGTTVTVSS VL: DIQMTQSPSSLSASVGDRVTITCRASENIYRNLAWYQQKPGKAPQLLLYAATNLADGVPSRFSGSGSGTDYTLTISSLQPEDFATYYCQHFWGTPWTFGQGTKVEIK , thanks.
(A) 5.4

Source of measurements: patent US10428140B2
